target: H^+K^+-ATPase (Sus scrofa); construct: H^+K^+ATPase was extracted from porcine gastric mucosal microsomal vesicles by iPhase; tissue iPhase; test: Inhibition of H^+K^+-ATPase in microsomal vesicles of porcine gastric mucosa; settings: pH 6.8, inorganic phosphorus readout
Sequence (P19156 2-1034 limits assumed): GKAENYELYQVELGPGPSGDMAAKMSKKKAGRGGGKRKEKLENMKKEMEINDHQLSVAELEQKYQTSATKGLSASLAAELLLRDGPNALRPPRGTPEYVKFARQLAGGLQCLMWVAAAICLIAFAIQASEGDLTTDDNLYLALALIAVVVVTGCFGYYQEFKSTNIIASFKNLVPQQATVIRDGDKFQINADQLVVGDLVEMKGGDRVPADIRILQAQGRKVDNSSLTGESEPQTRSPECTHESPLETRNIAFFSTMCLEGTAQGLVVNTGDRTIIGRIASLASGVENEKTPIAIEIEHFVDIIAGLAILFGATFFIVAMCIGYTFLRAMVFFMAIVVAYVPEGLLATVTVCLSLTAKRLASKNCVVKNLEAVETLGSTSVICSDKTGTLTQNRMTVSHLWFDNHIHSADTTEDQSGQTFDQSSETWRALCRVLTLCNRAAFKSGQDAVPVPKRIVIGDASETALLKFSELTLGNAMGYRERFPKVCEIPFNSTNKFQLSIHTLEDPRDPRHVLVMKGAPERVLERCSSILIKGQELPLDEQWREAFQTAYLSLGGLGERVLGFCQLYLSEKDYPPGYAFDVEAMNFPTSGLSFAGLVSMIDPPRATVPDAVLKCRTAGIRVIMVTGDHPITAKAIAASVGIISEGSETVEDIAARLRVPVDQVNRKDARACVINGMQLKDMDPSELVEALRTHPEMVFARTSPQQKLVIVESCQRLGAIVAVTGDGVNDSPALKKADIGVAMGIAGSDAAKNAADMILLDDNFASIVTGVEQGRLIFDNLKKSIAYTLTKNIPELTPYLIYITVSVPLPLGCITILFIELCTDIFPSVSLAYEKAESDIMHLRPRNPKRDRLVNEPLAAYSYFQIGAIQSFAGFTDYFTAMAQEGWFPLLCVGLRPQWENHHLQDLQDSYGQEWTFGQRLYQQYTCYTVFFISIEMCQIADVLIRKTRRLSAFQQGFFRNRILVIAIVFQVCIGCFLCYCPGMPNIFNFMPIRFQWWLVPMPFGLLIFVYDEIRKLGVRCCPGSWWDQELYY
Sequence (P18434 whole entry partner): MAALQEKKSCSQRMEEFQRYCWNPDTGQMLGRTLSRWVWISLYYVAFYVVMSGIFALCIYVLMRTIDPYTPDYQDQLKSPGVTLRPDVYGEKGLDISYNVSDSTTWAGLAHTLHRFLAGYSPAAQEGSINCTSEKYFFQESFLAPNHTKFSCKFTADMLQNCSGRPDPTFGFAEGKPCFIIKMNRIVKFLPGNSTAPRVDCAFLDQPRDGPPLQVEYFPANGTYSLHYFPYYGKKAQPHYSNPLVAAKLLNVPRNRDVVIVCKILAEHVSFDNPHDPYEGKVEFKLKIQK
Where a name gives a salt, the structure may show the parent alone.
readout.label: IC50 (nM)

- CNCc1cc(-c2ccccc2F)n(S(=O)(=O)c2cccnc2)c1 [TAK-438, Vonoprazan fumarate]: 41.5
